kon values, listed per item
- tested system: cynomolgus CD3εδ Fc heterodimer (Cy CD3ε Fc / CD3δ Fc-HIS) (cynomolgus) (UniProt Q95LI8)
- Sequence (chain, as listed by the source mutant, chain 1 of 2): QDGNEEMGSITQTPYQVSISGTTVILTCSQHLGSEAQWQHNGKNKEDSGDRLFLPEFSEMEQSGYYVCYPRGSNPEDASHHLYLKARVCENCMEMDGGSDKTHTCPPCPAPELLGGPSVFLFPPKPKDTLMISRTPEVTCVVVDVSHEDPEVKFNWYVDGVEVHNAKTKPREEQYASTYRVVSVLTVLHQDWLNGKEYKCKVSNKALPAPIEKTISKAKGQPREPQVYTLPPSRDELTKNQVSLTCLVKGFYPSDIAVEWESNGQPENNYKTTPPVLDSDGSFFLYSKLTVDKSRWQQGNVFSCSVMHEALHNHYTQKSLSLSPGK
- Sequence (Q95LI8 22-100, stated change not applied, chain 2 of 2): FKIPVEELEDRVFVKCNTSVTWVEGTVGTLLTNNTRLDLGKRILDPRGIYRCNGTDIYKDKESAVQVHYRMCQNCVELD
- protocol: BLI (ForteBio), pH 6.0
Output spec: scalar in M⁻¹ s⁻¹, unitless text.

1) SAD10320_P04_A11 (antibody, V domains shown) VH: QVQLVQSGAEVKKPGASVKVSCKASGFNIKDYYMHWVRQAPGQRLQWMGWIDLENANTIYDAKFQGRVTITRDTSASTAYMELSSLRSEDTAVYYCARDARHRYFYDVWGQGTLVTVSS VL: DIVMTQSPDSLAVSLGERATINCKSSQSLLNARTGKNYLAWYQQKPGQPPKLLIYWASTRESGVPDRFSGSGSGTDFTLTISSLQAEDVAVYYCKQSYSHGTFGGGTKVEIK	252000

Ask | Requested read-out: kon. Entry: SAD10320_P04_D12 (antibody, V domains shown) VH: QVQLVQSGAEVKKPGASVKVSCKASGFNIKDYYMHWVRQAPGQRLEWMGWIDLENANTIYDAKFQGRVTITRDTSASTAYMELSSLRSEDTAVYYCARDAYGHDFYDVWGQGTLVTVSS VL: DIVMTQSPDSLAVSLGERATINCKSSQSLLNARTGKNYLAWYQQKPGQPPKLLIYWASTRESGVPDRFSGSGSGTDFTLTISSLQAEDVAVYYCKQSYSHRTFGGGTKVEIK
Reply | 186000

Ask | Try SAD10320_P04_E12 (antibody, V domains shown) VH: QVQLVQSGAEVKKPGASVKVSCKASGFNIKDYYMHWVRQAPGQRLEWMGWIDLENANTIYDAKFQGRVTITRDTSASTAYMELSSLRSEDTAVYYCARDAYGHTFYDVWGQGTLVTVSS VL: DIVMTQSPDSLAVSLGERATINCKSSQSLLNARTGKNYLAWYQQKPGQPPKLLIYWASTRESGVPDRFSGSGSGTDFTLTISSLQAEDVAVYYCKQSYHVRTFGGGTKVEIK next.
Reply | 136000

The measured values listed here are drawn from patent US20220380463A1.
